Tested on: Malme-3M
Assay: NCI tumour cell line growth inhibition, 48 h
Activity calls are given as the source filed them. No stated cut-off is given here; in the data, active = GI50 up to about 1.1 µM and inactive = higher.
Thanks in advance; please answer with one of these: active, inactive

molecule: COc1ccc(CC(=O)NCCc2ccc(OC)c(OC)c2)cc1Br
testSystem: Malme-3M
qualitativeLabel: inactive

molecule: Cc1c2n(c3ccccc13)S(=O)(=O)c1ccccc1-2
testSystem: Malme-3M
qualitativeLabel: inactive

molecule: O=C(/C=C/c1c(O)ccc2ccccc12)c1ccc([N+](=O)[O-])cc1
testSystem: Malme-3M
qualitativeLabel: inactive

molecule: NC(=O)CCC(NC(=O)Cc1ccccc1)C(=O)O.NC(CCC(=O)NC(=O)Cc1ccccc1)C(=O)O (stereo not given)
testSystem: Malme-3M
qualitativeLabel: inactive

molecule: COc1ccc(C(c2c(O)c3ccccc3n(C)c2=O)c2c(O)c3ccccc3n(C)c2=O)cc1
testSystem: Malme-3M
qualitativeLabel: inactive

Task: Called result for COc1ccc(OC)c(N(CN2C(=O)CCC2C(=O)O)C(C)=O)c1 (stereo not given)
Output: inactive

---

Tested on: M14
Test: NCI tumour cell line growth inhibition, 48 h
Active and inactive are the calls of the source. No stated cut-off is given here; in the data, active = GI50 up to about 1.1 µM and inactive = higher.
Thanks in advance; please answer with one of these: active, inactive

Would you please look over these solved cases?
compound: N#CCCN(CCC#N)c1ccc(/C=C(/NC(=O)c2cc([N+](=O)[O-])ccc2Cl)C(=O)NN)cc1
qualitativeLabel: inactive
--
compound: CC1=C2CC[C@@]3(C)C(=CCC3O)C2(C)CCC1=O (stereo partly specified)
qualitativeLabel: inactive
--
compound: COc1ccc(N2C(=O)c3cccnc3S2(=O)=O)cc1
qualitativeLabel: inactive
--
compound: O=C1/C(=C\c2cccc(Oc3ccccc3)c2)SC(c2ccccc2)N1c1ccccc1 (stereo unspecified)
qualitativeLabel: inactive
--
compound: O=C(N/N=C1\CCc2ccccc21)N/N=C1\CCc2ccccc21
qualitativeLabel: inactive

Task: Called result for `COC(=O)CC(=O)Nc1sccc1S(=O)(=O)c1ccccc1`
Output: inactive

Task: What do you get for `Cc1ccc(NC(=O)c2cccc(OP(=O)(Nc3ccc(C)cc3)Nc3ccc(C)cc3)c2)cc1` ?
Output: inactive

Task: What do you get for `O=S1(=O)c2ccccc2-c2nccc3ccnc1c23` ?
Output: inactive

Task: What do you get for CC(=O)OC/C=C(/CCl)CCC(Br)C(C)(C)Br.CC(=O)OC/C=C(\CCl)CCC(Br)C(C)(C)Br (stereo unspecified) ?
Output: inactive

Task: What do you get for C=CC(C)(O)/C=C/C=C(\C)C(CC1OC1(C)C)OC(=O)/C(C)=C\C (stereo unspecified) ?
Output: inactive

Task: What do you get for `COc1cc2nc(-c3ccccc3)cc(O)c2cc1OC` ?
Output: inactive

Task: What do you get for `C[N+](C)(C)CC(=O)N/N=c1\cc(C(=O)Nc2ccc(N=O)cc2C#N)oc2cc(O)ccc12` ?
Output: inactive

Task: What do you get for `COC(OC)(c1ccccc1)C(I)I` ?
Output: inactive

Task: What do you get for `CCCCC(=O)OC[n+]1ccc(-c2c(COC(=O)NC(C)C)c(COC(=O)NC(C)C)c3n2CCC3)cc1` ?
Output: inactive

Task: What do you get for `COc1ccc2c(c1)c1nn(CCN3CCCCC3)c3ccc4c(=O)n(CCN(C)C)c(=O)n2c4c13` ?
Output: active

Task: What do you get for `Cc1ccccc1C(=O)Oc1ccc(OCc2ccccc2)cc1` ?
Output: inactive

Task: What do you get for `CC(=O)Oc1c(-c2ccccc2)[nH]c2cc([N+](=O)[O-])c(/C(Cl)=C/c3ccccc3)cc12` ?
Output: inactive

Task: What do you get for `O=C(C(=O)c1cc(-c2ccccc2)nc2ccc3ccccc3c12)c1ccccc1` ?
Output: inactive

Task: What do you get for `CN(C)/N=C1/CCC(C(F)(F)F)(C(F)(F)F)O1` ?
Output: inactive

Task: What do you get for `O=Cc1cn(S(=O)(=O)c2ccccc2)c2ccccc12` ?
Output: inactive

Task: What do you get for C=CCC1C(=O)C(C(=O)OC)N2CCc3c([nH]c4ccccc34)C12 (stereo unspecified) ?
Output: inactive

---

Test system: A498
Test: NCI tumour cell line growth inhibition, 48 h
Calls of active or inactive are those of the source. No stated cut-off is given here; in the data, active = GI50 up to about 1.1 µM and inactive = higher.
Thanks in advance; please answer with one of these: True (active), False (inactive)

Would you please look over these solved cases?
molecule: NC(=O)C12CC3CC(CC(F)(C3)C1)C2
qualitativeLabel: False

molecule: CCOC(=O)C(C(=O)OCC)C(NC(=O)Nc1cc(C(F)(F)F)ccc1OC)(C(F)(F)F)C(F)(F)F
qualitativeLabel: False

molecule: c1ccc2c3c([nH]c2c1)C1CCCN1CC3 (stereo not given)
qualitativeLabel: False

molecule: CC1(C)CC[C@]2(C(=O)O)CC[C@]3(C)C(=CC[C@@H]4[C@@]5(C)CC[C@@H]6OC(C)(C)OC[C@@]6(C)[C@@H]5CC[C@]43C)[C@H]2C1
qualitativeLabel: False

molecule: COc1ccc(N2C(=O)c3cccnc3S2(=O)=O)cc1
qualitativeLabel: False

Task: Called result for COC1/C=C/C(C)C(O)CC(O)/C=C/C(C)C(C(C)C(OC)C(C)CCC(=O)C(C)C(C/C=C/N(C)C=O)OC)OC(=O)/C=C/C=C(\C)CC(OC)CC2=CC(=O)O[C@@H](C(C)C(OC)C1)[C@H]2O (stereo not given in full)
Output: True

Task: What do you get for CC(C)C(/N=C/c1ccccc1O)C(=O)O (stereo not given) ?
Output: False

Task: What do you get for `O=c1c2cccnc2oc2c(Cl)cc(-c3nnn[nH]3)cc12` ?
Output: False

Task: What do you get for Cc1ccc(C)c(NC(=O)C(=O)C(C2C(C)CC(=O)C2CC(=O)O)[N+](=O)[O-])c1 (stereo not given) ?
Output: False

Task: What do you get for `CCCCCc1c(Cl)nc(Cl)nc1Cl` ?
Output: False

---

Test system: 786-0
Assay: NCI tumour cell line growth inhibition, 48 h
Active and inactive are the calls of the source. Rule as the data show it: active = GI50 up to about 1.1 µM and inactive = higher.
Thanks in advance; please answer with one of these: active, inactive

Would you please look over these solved cases?
compound: C=CCC1(CN(C)C)CC/C(=C\c2ccc(OC)cc2)C1=O (stereo not drawn)
qualitativeLabel: inactive

compound: CC(C)CCCCCCCCCCCCC(=O)NCC(=O)NC1C(O)C(O)C(Nc2[nH]cnc3ncnc2-3)OC1C(O)CO (stereo not drawn)
qualitativeLabel: active

compound: Cc1c(C(=O)O)n2c(S)nnc2c2ccccc12
qualitativeLabel: inactive

compound: Fc1ccc(/N=N/N2CCCC2)cc1
qualitativeLabel: inactive

Task: Called result for `COC(=O)[C@H](Cc1ccccc1)NC(=O)c1ccc(CNC(=O)/C=C/c2ccc(-c3ccccc3)cc2)cc1`
Output: inactive

---

Tested on: DLD-1
Assay: NCI tumour cell line growth inhibition, 48 h
The source made the active and inactive calls. No stated cut-off is given here; in the data, active = GI50 up to about 1.1 µM and inactive = higher.
measure: GI50

Give measured GI50 for every item shown.
1. CCCCn1c(-c2ccccc2)cs/c1=N\NC(=O)Cn1c(C)nc2ccccc21
2. Cc1cc(N(CCC#N)CCC#N)ccc1/C=C(\N=[N+]=[N-])C(=O)NC(=O)COc1ccccc1
3. Cn1c2ccccc2n2c3nc4ccccc4nc3c(C#N)c12
4. C#CC[N+](CCO)(CCO)CCCCCCCCCCCCCCCCCC

Output:
> 100 µM (inactive)
> 100 µM (inactive)
< 0.01 µM (active)
9.25 µM (inactive)

Give measured GI50 for every item shown.
1. Cc1ccc(S(=O)(=O)C2=c3nc4ccccc4cc3=C3C(=O)c4ccccc4C(=O)C32)cc1 (stereo unspecified)
2. O=C1COc2cc(NC(=S)Nc3ccccc3)ccc2N1
3. C=C1C(=O)OC2CC3(C)OC3CC/C(C)=C/C(OC(C)=O)C12 (stereo unspecified)
4. COc1ccc(-c2oc(/C=N/NC(N)=S)c([N+](=O)[O-])c2-c2ccc(OC)c(OC)c2)cc1OC
5. O=C1C2=C(c3ccccc31)C(c1ccccc1Cl)N1C(=O)CSC1=N2 (stereo unspecified)
6. O=C1NC2(CCCCC2)C2CCCCC=C12 (stereo unspecified)

Output:
1: > 100 µM (inactive); 2: > 100 µM (inactive); 3: 2.75 µM (inactive); 4: 24.3 µM (inactive); 5: > 100 µM (inactive); 6: > 100 µM (inactive)

Give measured GI50 for every item shown.
1. c1ccc(C2SCc3nc4ccccc4n32)cc1 (stereo unspecified)
2. COC(=O)CC1CCN(C#N)CC1CC[N+](=O)[O-] (stereo unspecified)
3. CO[C@H]1ON=C(c2c(C)cc(C)cc2C)[C@@H]1C1(c2ccccc2)ON=C(c2c(C)cc(C)cc2C)O1 (stereo partly specified)
4. CCC/C=C/C=C/C(=O)OC1/C(=C/C(=O)OC)CC2CC(C(C)O)OC(=O)CC(O)CC3CC(OC(C)=O)C(C)(C)C(O)(CC4C/C(=C/C(=O)OC)CC(/C=C/C(C)(C)C1(O)O2)O4)O3 (stereo unspecified)
5. Cc1cccc(NC2=NC(=O)C(CC(=O)Nc3cccc(C)c3C)S2)c1 (stereo unspecified)
6. CCOc1ccc2c(c1)[n+]([O-])c(-c1ccc([N+](=O)[O-])cc1)c(N)[n+]2[O-]

Output:
["49.5 µM (inactive)", "> 100 µM (inactive)", "> 100 µM (inactive)", "> 10.9 µM (inactive)", "> 100 µM (inactive)", "> 100 µM (inactive)"]

Give measured GI50 for every item shown.
1. CC#COS(=O)(=O)c1ccc(C)cc1
2. CC/C=C1\N=C(c2ccc(Cl)cc2)OC1=O
3. COc1ccc(/C=C2\CCC(CN3CCOCC3)C2=O)cc1 (stereo unspecified)
4. COc1ccc(/C(Cl)=C(\C=N/O)c2ccc(OC)c(OC)c2)cc1OC

Output:
30.8 µM (inactive)
> 100 µM (inactive)
2.79 µM (inactive)
> 100 µM (inactive)

Task: Any idea what GI50 was measured for CC1=C2CC[C@@]3(C)C(=CCC3O)C2(C)CCC1=O (stereo partly specified) ?
Output: > 100 µM (inactive)
